Just for reference, the supplement of paper PMC9170038 is where these values come from.

Test system: MS2 coat protein
MEASUREMENT DESCRIPTION: apparent KD of MS2 coat protein, switch ON state; designed switch direction (-1 OFF switch, 1 ON switch): 1; higher = weaker reporter binding
CONDITIONS: FMN input: 0 or 200 uM; Eterna round: R93 (includes R88 designs)
# apparent KD of MS2 coat protein annotations
Answer in nM, number only, no unit symbol.

                             chain_sequence  output_unit  endpoint_value
0  AAAAAACAUGAGGAUCACCCAUGUAGAAACAUGGGAGGAUAUACAAAGACGAAAGUCAAAGUAGAAGGCCUAAAAG [Mat - Same State 1 - Mod - D158]           nM             224

# value of apparent KD of MS2 coat protein, MS2 coat protein, item AAAAAACAUGAGGAUCACCCAUGUAAUACAACAUCAGGAUAUUGGCUUUACUAUGUAUUACAAGAAGGGAUGAAAA [Same State 1.3c (Same State 1 - Omei 2 )] = 171

# value of apparent KD of MS2 coat protein, MS2 coat protein, item AAAACACAUGAGGAUCACCCAUGUAAAAACAUGGGAGGAUAUGCUUGGAAAACAUGCUAUGCAGAAGGCUCAAGUG [SS1 - 12] = 72.6

# value of apparent KD of MS2 coat protein, MS2 coat protein, item AGAAAACAUGAGGAUCACCCAUGUAGGAAUAUGGGAGGAUAUACAAAGACGAAAGUCAGAGUAGAAGGCCUAAAAA [salish99-SS1-086] = 17.5

# value of apparent KD of MS2 coat protein, MS2 coat protein, item AAAAGACAUGAGGAUCACCCAUGUCAAAACGUAGGAGGAUAUGUCUUGAAAAAAGACUUGACAGAAGGCCUGUGUC [SS1 - 54] = 15.1

# value of apparent KD of MS2 coat protein, MS2 coat protein, item AAUAAUUAUAGCAAGGAUAUCGGUAUAAAGACAUGAGGAUCACCCAUGUAAUAUGGUUAAAUUUACGAGAAGGUGCAGGGUGAAA [JR_SS002_Sub009] = 170

# value of apparent KD of MS2 coat protein, MS2 coat protein, item CUGAGGAAGAGAGAGGAUAUCCAAAGGAAAACAUGAGGAUCACCCAUGUAAAAGGUAGGAAAUUGGGAGAAGGCUCAAGAGAGAG [salish99-ss2-068] = 22.4

# value of apparent KD of MS2 coat protein, MS2 coat protein, item GGUACAGCUAGUUAGGAUAUCAGGUGUAAGACAUGAGGAUCACCCAUGUCCUAAGAACAGGUAACUGAGAAGGAACAGGGCGUCC [JR_SS002_Sub415] = 27.3

###

System: MS2 coat protein
MEASUREMENT DESCRIPTION: apparent KD of MS2 coat protein; designed switch direction (-1 OFF switch, 1 ON switch): -1; higher = weaker reporter binding
CONDITIONS: input ligand: microRNA oligo, concentration not stated
QUANTITY: apparent KD of MS2 coat protein (nM)
Answer in nM, number only, no unit symbol.

Here's what some known entries look like.
CHAIN SEQUENCE	ENDPOINT VALUE
AUAAUACAUGUAGGAUAUGCGUGGCGAAGCUAUGCAGAAGGACAUGAGGAUCACCCAUGUCUUAGCGUCUGCGUACAGAUGCUA [JL eng1 1.35 mod 2] (Eterna round: R96, puzzle: Exclusion NG 1)	12.1
UUGUUAUAUGUAGGAUAUGCGUGUUGUUAUUAGGCAGAAGGACAUGAGGAUCACCCAUGUAUGUUGUUGUUAUAUAUUAUAUAU [Title] (Eterna round: R96, puzzle: Exclusion NG 1)	28.3
ACGAUGACCGAAAAGUGUUAACUGACAUGAGGAUCACCCAUGUAGGAUAUGGCUACGAAAAGUAGUCAGAAGGGCAUGUCAUCA [Omei Exc(NG) 3 Av8] (Eterna round: R96, puzzle: Exclusion NG 3)	18.7

Measured apparent KD of MS2 coat protein, UAUUAACAUGUAGGAUAUCUGCACGAUUAGUGCAGAGAAGGACAUGAGGAUCACCCAUGUAGAUCAUAAUAAUUUAAUUUAAUU [ENG1/6-D1] (Eterna round: R96, puzzle: Exclusion NG 1) : 106

Measured apparent KD of MS2 coat protein, GCUUCUGGGCAAGGAUAUCCUGCGCUGUUCUGGUUCGUGUCUGUCACAUGAGGAUCACCCAUGUGGGAGAAGGUGCCUGUGGCG [Design 67] (Eterna round: R96, puzzle: Exclusion NG 2) : 17

###

# apparent KD of MS2 coat protein annotations
Test system: MS2 coat protein
MEASUREMENT DESCRIPTION: apparent KD of MS2 coat protein; designed switch direction (-1 OFF switch, 1 ON switch): -1; higher = weaker reporter binding
CONDITIONS: input ligand: none
Answer in nM, number only, no unit symbol.

Here's what some known entries look like.
CHAIN SEQUENCE	OUTPUT UNIT	ENDPOINT VALUE
UAAUGUGCGAGAGGAUAUCGUGUACAAAGUACACGAGAAGGCUUCACAUGAGGAUCACCCAUGUAUCGAGGUGAAACACCUUGG [Omei Exc(NG)1 Bv2] (Eterna round: R96, puzzle: Exclusion NG 1)	nM	318
UAUUUAGCAAGCAGAUCCCACAUGAGGAUCACCCAUGUUUUCUGAAAAUAAAUUAAAAUAGCUGAAGCUCGUCUUAU [Winner reversed engineered 38] (Eterna round: R97, puzzle: Sensor, turn-off variant 1)	nM	137
ACCUCACAUGAGGAUCACCCAUGUCAGGAUAUCUAUUAUUGCAGCAUUCCUGUCGCUGAGAGAAGGGACAUUAA [EX1 #28] (Eterna round: R97, puzzle: Exclusion 1)	nM	23.7
UAAUUUUUAGUAAGGAUAUCGGUCCCAAGGGACAACGAGAAGGUACAUGAGGAUCACCCAUGUGAAAUAAGAAU [Mod of Zala 4 - Jieux - Brourd's Mod of Exclusion 4] (Eterna round: R97, puzzle: Brourd's mod of Exclusion 4)	nM	17.3
GGAUAAAACCGAGGAUAUACGUAUCACUAACGAGUAGAAGGCGGACAUGAGGAUCACCCAUGUGAGUUCUCAAUAAGAAACACG [Prohibition 64 - Jieux - Exclusion NG 1] (Eterna round: R96, puzzle: Exclusion NG 1)	nM	174
UUUUAGCAAGCGAGAUCCCACAUGAGGAUCACCCAUGUGCAUCCAGAAUUACUGGGUGCAAAAGCUCGUCUUAUAUA [Winner reversed engineered] (Eterna round: R97, puzzle: Sensor, turn-off variant 1)	nM	50.1
GAUGGACAUGAGGAUCACCCAUGUAAGGAUAUUGUUUGUGGCUAGUUUUGGUUACGGGCGAGAAGGUACUCGUC [-19.7, -16.7 kcal, A 23%] (Eterna round: R97, puzzle: Exclusion 1)	nM	47.7
GAAAAGCAUGUGAGGAUAUGCACACCGGACCGGUGGUAGAAGGCACAUGAGGAUCACCCAUGUGACCAAGAAUA [BmEX4 A.4] (Eterna round: R97, puzzle: Brourd's mod of Exclusion 4)	nM	10.6

Attention now turns to another entry.
# value of apparent KD of MS2 coat protein, MS2 coat protein, item AAUAAUCAUGUAGGAUAUGCGUGGCAAAGCUAUGCAGAAGGACAUGAGGAUCACCCAUGUUCUAGCGUCUGAGAACAGAUGCUA [Mat - Exclusion NG 1 - Mod of JL - D82] (Eterna round: R96, puzzle: Exclusion NG 1) = 41.5

###

Tested on: MS2 coat protein
MEASUREMENT DESCRIPTION: apparent KD of MS2 coat protein; designed switch direction (-1 OFF switch, 1 ON switch): -1; higher = weaker reporter binding
CONDITIONS: input ligand: none
Threshold check on apparent KD of MS2 coat protein: at or above 40 nM gives YES, strictly below gives NO.

Solved entries:
CHAIN SEQUENCE	DISCRETE LABEL
AAGAAGAAGUAAGGAUAUGAAGAUUUGGUGAUAACAUGAGGAUCACCCAUGUGAAAACAAUAAGAUCAGAAGGUAUAAGAAGAA [AK ExNG2-2.1] (Eterna round: R96, puzzle: Exclusion NG 2)	YES
UUCAUGUAAGGAUAUGUAGUGAUGACGAAAUUUGUCGUUAAACAGAAGGUACAUGAGGAUCACCCAUGUAGCUA [EX4 B.9] (Eterna round: R97, puzzle: Exclusion 4)	NO
AGCUUUUUGCUCGUCUUAUACAUGAGGAUCACCCAUGUAUUGGACCACAUCGAUAGAUGUGGACCAAGAAGCAUGGU [Omdei Mir OFFv1 C3] (Eterna round: R97, puzzle: Sensor, turn-off variant 1)	YES
CUAAAUCAUGUAGGAUAUGCAUAGCGAAGCUAUGCAGAAGGACAUGAGGAUCACCCAUGUUCUUCCGUCUGAGUACAGACGGAA [Mat - Exclusion NG 1 - Mod of JL - D31] (Eterna round: R96, puzzle: Exclusion NG 1)	NO
CUCCGGCGUGUAGGAUAUGGUUCCGUUUAGGUUCCAGAAGGACAUGAGGAUCACCCAUGUACAUGUCGUCGGUCGUCACCGGGC [salish99_ExNG1_r04_213] (Eterna round: R96, puzzle: Exclusion NG 1)	NO

q: hey, is apparent KD of MS2 coat protein for this one >= 40 nM? GGAUUUACUGAGGAUAUUGCAUCACCCGACUGAUAAGAAGGCAGAACAUGAGGAUCACCCAUGUGGGUACUCAA [Bingo-Bango-5] (Eterna round: R97, puzzle: Exclusion 6)
a: YES

q: hey, is apparent KD of MS2 coat protein for this one >= 40 nM? AUAAUGUAAGGAUAUCAGUCGACUAGCUGCGGCUAGUCGACUGAGAAGGUACAUGAGGAUCACCCAUGUGAAUA [E4/16-A3] (Eterna round: R97, puzzle: Exclusion 4)
a: YES

q: hey, is apparent KD of MS2 coat protein for this one >= 40 nM? GUGAGCAGACGGAGAUCCUACAUGAGGAUCACCCAUGUCUCACUAGCUUUUUGCUCGUCUUAUCCUCCUCUGUUCAC [Elimod 24 - Jieux - Sensor, turn-off variant 1] (Eterna round: R97, puzzle: Sensor, turn-off variant 1)
a: NO

q: hey, is apparent KD of MS2 coat protein for this one >= 40 nM? AUAUUGUGAGGAUAUGAACUUAGUAACGAAAGAUACUAAGUUCAGAAGGCACAUGAGGAUCACCCAUGUUUCUC [Long static hairpin v11] (Eterna round: R97, puzzle: Exclusion 4)
a: YES
